# target-or-test-system: full-length H1 A/California/07/2009 HA expressed on 293T cells (influenza A virus A/California/07/2009 (H1N1))
# protocol-description: cell-based or functional assay
measurement-name: IC50 of pseudo virus neutralization H1N1 CA/09

// each binder listed below needs its IC50 of pseudo virus neutralization H1N1 CA/09
1. P14 (antibody, V domains shown) VH: EVQLVESGGGLVQPGGSLRLSCAASGFTIGDFGIHWVRQAPGKGLEWVAGIWPFGGYTYYADSVKGRFTISADTSKNTAYLQMNSLRAEDTAVYYCARFVNWDGDYMDYWGQGTLVTVSS VL: DIQMTQSPSSLSASVGDRVTITCRASQDVGFYVAWYQQKPGKAPKLLISWSSYLYSGVPSRFSGSGSGTDFTLTISSLQPEDFATYYCQQYYNYPLTFGQGTKVEIKR
2. S48 (antibody, V domains shown) VH: EVQLVESGGGLVQPGGSLRLSCAVSGFTIGDGSIHWVRQAPGKGLEWVASIGPYGGSTYYADSVKGRFTISADTSKNTAYLQMNSLRAEDTAVYYCARFHYGYWNNMDYWGQGTLVTVSS VL: DIQMTQSPSSLSASVGDRVTITCRASQDVGWWVAWYQQKPGKAPKLLIYGTRWLYSGVPSRFSGSGSGTDFTLTISSVQPEDFATYYCQQYYSGPITFGQGTKVEIKR
3. C05 (antibody, V domains shown) VH: PVQLQESGGGLVQPGESLRLSCVGSGSSFGESTLSYYAVSWVRQAPGKGLEWLSIINAGGGDIDYADSVEGRFTISRDNSKETLYLQMTNLRVEDTGVYYCAKHMSMQQVVSAGWERADLVGDAFDVWGQGTMVTVSS VL: DIQLTQSPSSLSASVGDRVTLTCQASQDIRKFLNWYQQKPGKGPKLLIYDASNLQRGVPSRFSGGGSGTDFTLIISSLQPEDVGTYYCQQYDGLPFTFGGGTKVEIKR

Reply |
> 100 µg/mL
> 100 µg/mL
> 100 µg/mL

Source listed as patent US20210070843A1.
